- PROCEDURE DETAILS: shake flask on a mixture of 185; loss from the water phase only; LC-Orbitrap peak areas
- CONDITION INFO: room
Here, each record is paired with measured log partition n-octane / HPLC water, unbuffered, traces of methanol / DMSO data.
ASSAY READOUT: log partition n-octane / HPLC water, unbuffered, traces of methanol / DMSO (log10)

{"CHEM SMILES": "CCC(C)(CC)c1cc(NC(=O)c2c(OC)cccc2OC)on1", "READOUT UNITS": "log10", "TEST VALUE": 0.8981}
{"CHEM SMILES": "Cn1cnc([N+](=O)[O-])c1Sc1ncnc2nc[nH]c12", "READOUT UNITS": "log10", "TEST VALUE": -1.543}
{"CHEM SMILES": "Cc1cc(O)cc(C)c1Cl", "READOUT UNITS": "log10", "TEST VALUE": 0.5049}
{"CHEM SMILES": "Cc1oncc1C(=O)Nc1ccc(C(F)(F)F)cc1", "READOUT UNITS": "log10", "TEST VALUE": -0.1369}
{"CHEM SMILES": "CC(C)Nc1nc(N)nc(Cl)n1", "READOUT UNITS": "log10", "TEST VALUE": -0.5719}
{"CHEM SMILES": "CCOC(=O)CC(=O)c1ccccc1", "READOUT UNITS": "log10", "TEST VALUE": -1.147}
{"CHEM SMILES": "CCCN(CCC)c1c([N+](=O)[O-])cc(C(C)C)cc1[N+](=O)[O-]", "READOUT UNITS": "log10", "TEST VALUE": -0.4473}
{"CHEM SMILES": "c1ccc2[nH]c(-c3cscn3)nc2c1", "READOUT UNITS": "log10", "TEST VALUE": -0.1168}
{"CHEM SMILES": "CC(=O)Oc1ccc(C(C)=O)cc1", "READOUT UNITS": "log10", "TEST VALUE": -0.2813}

---

- PROCEDURE DETAILS: shake flask on a mixture of 185; loss from the water phase only; LC-Orbitrap peak areas
- CONDITION INFO: room
Label rule, in plain words: log partition dichloromethane / HPLC water, unbuffered, traces of methanol / DMSO of 0.6 log10 and up is t, under 0.6 log10 is f.

{"MOLECULE": "CCCCOC(=O)C(C)Oc1ccc(Oc2ccc(C(F)(F)F)cn2)cc1 (stereo not shown)", "QUALITATIVE LABEL": "t"}
{"MOLECULE": "Nc1cc2c3c(c1)C(c1ccccc1)=N[C@@H](NC(=O)c1cccnc1)C(=O)N3CC2", "QUALITATIVE LABEL": "t"}
{"MOLECULE": "CCCCc1ccc(O)cc1", "QUALITATIVE LABEL": "f"}
{"MOLECULE": "CN1COCN(Cc2cnc(Cl)s2)C1=N[N+](=O)[O-]", "QUALITATIVE LABEL": "t"}
{"MOLECULE": "COc1ccccc1/C=C/C=O", "QUALITATIVE LABEL": "t"}
{"MOLECULE": "C[C@H](CCC(=O)O)[C@H]1CC[C@H]2[C@@H]3CC[C@@H]4C[C@H](O)CC[C@]4(C)[C@H]3CC[C@]12C", "QUALITATIVE LABEL": "t"}
{"MOLECULE": "Cc1cc(SCc2sc(-c3ccc(C(F)(F)F)c(F)c3)nc2C)ccc1OCC(=O)O", "QUALITATIVE LABEL": "t"}
{"MOLECULE": "CCc1ccc(C(=O)NN(C(=O)c2cc(C)cc(C)c2)C(C)(C)C)cc1", "QUALITATIVE LABEL": "t"}
{"MOLECULE": "CCCCCCCCCCCCN1CCCCCC1=O", "QUALITATIVE LABEL": "f"}
{"MOLECULE": "O=C(O)c1ccccc1C(c1ccc(O)cc1)c1ccc(O)cc1", "QUALITATIVE LABEL": "f"}
